Experiment: Resulting pH of the alkalinity agents in solution
Format: physicochemical
Conditions: resulting pH of the alkalinity agent in solution
Answer each item with its documented pH.
One number for each entry.

Some entries whose results are on file:
compound	pH
O=P(O)(O)OP(=O)(O)OP(=O)(O)O [Sodium tripolyphosphate, sodium tripolyphosphate]	9.60
O=C([O-])[O-].[Na+].[Na+] [Sodium carbonate, sodium carbonate]	10.84
O=C([O-])CC(O)(CC(=O)[O-])C(=O)[O-].[Na+].[Na+].[Na+] [Sodium citrate, sodium citrate]	8.30

Alright, here's another compound for you.
Could you share which pH value was measured for O=C([O-])O.[Na+] [Sodium bicarbonate, sodium bicarbonate] ?
8.63

* * *

Test system: T1 lipase
Assay: Lipase stability test: residual activity of T1 lipase after incubation with detergent components
Assay type: biochemical, Geobacillus zalihae strain T1
Settings: incubation in 0.2% (w/v) component, 60° C., 30 min
experimental.readout: Stability of T1 lipase in the component (in words)

compound	result
O=C([O-])[O-].O=C([O-])[O-].OO.OO.OO.[Na+].[Na+].[Na+].[Na+] [Sodium percarbonate, sodium percarbonate]	strongly destabilized
CCCCCCCCCCCCCCCC[N+](C)(C)C.[Br-] [CTAB, cetyl trimethylammonium bromide]	strongly destabilized

* * *

Test system: T1 lipase
Experiment: Lipase stability test: residual activity of T1 lipase after incubation with detergent components
Assay type: biochemical, Geobacillus zalihae strain T1
Details: T1 lipase residual activity after 30 min at 60° C. in 0.2% (w/v) alkalinity agent; Glycine-NaOH control = 100
Answer each item with its documented Relative activity (%).
One number for each entry, in %.

Some entries whose results are on file:
compound	Relative activity (%)
O=C([O-])[O-].[Na+].[Na+] [Sodium carbonate, sodium carbonate]	1
O=C([O-])CC(O)(CC(=O)[O-])C(=O)[O-].[Na+].[Na+].[Na+] [Sodium citrate, sodium citrate]	48
O=C([O-])O.[Na+] [Sodium bicarbonate, sodium bicarbonate]	94

Alright, here's another compound for you.
Could you share which Relative activity (%) value was measured for O=P(O)(O)OP(=O)(O)OP(=O)(O)O [Sodium tripolyphosphate, sodium tripolyphosphate] ?
0

* * *

Answer each item with its documented Relative activity (%).
Tested on: T1 lipase
Test: Lipase stability test: residual activity of T1 lipase after incubation with detergent components
Assay type: biochemical, Geobacillus zalihae strain T1
Details: T1 lipase residual activity after 30 min at 60° C. in 0.2% (w/v) surfactant or bleach; w/o control = 100
Numbers only, in %.

Some entries whose results are on file:
compound	Relative activity (%)
O=C([O-])[O-].O=C([O-])[O-].OO.OO.OO.[Na+].[Na+].[Na+].[Na+] [Sodium percarbonate, sodium percarbonate]	0.3
CCCCCCCCCCCCOS(=O)(=O)[O-].[Na+] [SDS, sodium dodecyl sulfate]	14
CCCCCCCC/C=C\CCCCCCCC(=O)OCCOCC(OCCO)C1OCC(OCCO)C1OCCO (stereo not shown) [Tween 80, polysorbate 80]	98

Could you share which Relative activity (%) value was measured for CCCCCCCCCCCCCCCC[N+](C)(C)C.[Br-] [CTAB, cetyl trimethylammonium bromide] ?
1.9
